pKd overview
measured.on: CpIMPDH (Cryptosporidium parvum)
Sequence (Q8T6T2 1-400): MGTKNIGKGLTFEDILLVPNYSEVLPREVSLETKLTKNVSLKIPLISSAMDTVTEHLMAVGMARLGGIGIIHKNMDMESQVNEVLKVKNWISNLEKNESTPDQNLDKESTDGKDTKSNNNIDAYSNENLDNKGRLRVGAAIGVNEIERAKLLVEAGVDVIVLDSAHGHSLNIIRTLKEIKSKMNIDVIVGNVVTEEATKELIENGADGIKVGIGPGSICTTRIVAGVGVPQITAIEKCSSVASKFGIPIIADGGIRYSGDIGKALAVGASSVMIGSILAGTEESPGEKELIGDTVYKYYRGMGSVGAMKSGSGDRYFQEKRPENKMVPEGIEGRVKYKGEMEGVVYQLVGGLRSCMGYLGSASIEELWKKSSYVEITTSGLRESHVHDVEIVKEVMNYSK
experiment: Equilibrium dissociation constants by intrinsic protein fluorescence
Format: binding
measurement.conditions: free enzyme; 50 mM Tris-HCl, pH 8.0, 100 mM KCl, 1 mM DTT, 25 °C
Lab note: report pKd as minus log10 of the concentration in molar units, number only.

compound	measured.on	pKd
NC(=O)C1=CN([C@@H]2O[C@H](COP(=O)(O)OP(=O)(O)OC[C@H]3O[C@@H](n4cnc5c(N)ncnc54)[C@H](O)[C@@H]3O)[C@@H](O)[C@H]2O)C=CC1 [NADH]	CpIMPDH (Cryptosporidium parvum)	5.64

Continue with the next compound.
**Query** API: value(readout= pKd, system= CpIMPDH (Cryptosporidium parvum), query= Nc1nc2c(ncn2[C@@H]2O[C@H](COP(=O)(O)O)[C@@H](O)[C@H]2O)c(=O)[nH]1 [GMP, guanosine monophosphate] )
**Result** 5.32

###

measured.on: CpIMPDH (Cryptosporidium parvum)
experiment: Equilibrium dissociation constants by intrinsic protein fluorescence
Format: binding
measurement.conditions: Kd, free enzyme; 50 mM Tris-HCl, pH 8.0, 100 mM KCl, 1 mM DTT, 25 °C
Kd overview
Give a bare numeral; the unit µM is implied.

compound	unit.descriptor	Kd
O=c1[nH]c(=O)c2ncn([C@@H]3O[C@H](COP(=O)(O)O)[C@@H](O)[C@H]3O)c2[nH]1 [XMP, xanthosine 5′-monophosphate]	µM	5.6

Continue with the next compound.
**Query** What value of Kd has been reported for the following compound? NC(=O)c1ccc[n+]([C@@H]2O[C@H](COP(=O)([O-])OP(=O)(O)OC[C@H]3O[C@@H](n4cnc5c(N)ncnc54)[C@H](O)[C@@H]3O)[C@@H](O)[C@H]2O)c1 [NAD^+, nicotinamide adenine dinucleotide]
**Result** 14
